measure: melting point (°C)
Return type: number; implicit unit °C.

| molecule | melting point [°C] |
| --- | --- |
| Clc1ccc(N=Nc2ccccc2)cc1 | 88 |
| C=CC1(C)C=C2CCC3C(C)(C(=O)O)CCCC3(C)C2CC1 (stereo unspecified) | 218 |
| Cc1ccc(Br)cc1Br | -9.7 |
| Nn1c(S)nnc1C(F)(F)F | 141 |

Memo: "COc1cc(C(=O)NN)cc(OC)c1O" , reported melting point: 156

Memo: "CC12CC3CC(C)(C1)CC(C(=O)O)(C3)C2" , reported melting point: 101

Memo: "CN(C)c1ccc(/C=C/C(=O)CCc2ccccc2)cc1" , reported melting point: 93

Memo: CCC(C#N)CC#N (stereo unspecified) , reported melting point: -41

Memo: "CC(C)=CCC1C(=O)N(c2ccccc2)N(c2ccccc2)C1=O" , reported melting point: 156

Memo: "O=C(c1ccccc1)c1ccccc1Cl" , reported melting point: 46

Memo: O=C1C(Cl)C(CCl)CN1c1cccc(C(F)(F)F)c1 (stereo unspecified) , reported melting point: 67.7

Memo: "O=[N+]([O-])c1ccccc1CCO" , reported melting point: 2

Memo: "Cc1ccc(Nc2ccc([N+](=O)[O-])cc2[N+](=O)[O-])cc1" , reported melting point: 140

Memo: CC1(C)OC2CC(=O)OCC23C1CC(=O)C1(C)C3CCC2(C)C(c3ccoc3)OC(=O)C3OC321 (stereo unspecified) , reported melting point: 298

---

In this section, each of the molecules is paired with its reported melting point.
Return type: number; implicit unit °C.

Below are worked cases with known answers.
| structure smiles string | measure | meas value |
| --- | --- | --- |
| COc1ccc(C(=S)Nc2ccccc2)cc1 | melting point | 157 |
| Oc1cccc(-c2ccccc2)c1 | melting point | 78 |
| CC(C)(C)c1cc(CC#N)cc(C(C)(C)C)c1O | melting point | 111 |
| NS(=O)(=O)c1ccc(SCCO)c([N+](=O)[O-])c1 | melting point | 151 |
| COc1ccc(NN=C2C(=O)NC(=S)NC2=O)cc1 | melting point | 246 |
| Cc1nc2ccc([N+](=O)[O-])cc2o1 | melting point | 155 |
| Cc1cccc(CC(=O)O)c1 | melting point | 64 |

Memo: "O=c1c(O)c(-c2ccc(O)cc2O)oc2cc(O)cc(O)c12" , reported melting point: 304

---

measure: melting point

Below are worked cases with known answers.
| molecule | melting point |
| --- | --- |
| CC1(C)CC(=O)C2=C(C1)Nc1ccc3ccccc3c1C2c1ccccc1 (stereo unspecified) | 314 °C |
| CC(CO)c1c(O)c(O)c2c(c1O)C(=O)C(O)=C1C(C)(C)CCCC12C (stereo unspecified) | 237 °C |
| O=C(N[N+](=O)[O-])c1ccccc1 | 143 °C |
| N#Cc1ccc(C[C@H](NC(=O)OCC2c3ccccc3-c3ccccc32)C(=O)O)cc1 | 189 °C |

Memo: "CC(C)C[C@H](NC(=O)OCC1c2ccccc2-c2ccccc21)C(=O)O" , reported melting point: 153 to 157 °C

Memo: "Cc1ccc(S(=O)(=O)CC(=O)O)cc1" , reported melting point: 118 °C

---

In this section, each of the compounds is paired with its reported melting point.

Below are worked cases with known answers.
| compound | melting point |
| --- | --- |
| Cc1ccc(C)c(NN=C2C(=O)NN=C2C(F)(F)F)c1 | 189 °C |
| CC(C)(C)[C@H]1CC[C@H](C(=O)O)CC1 | 170 to 175 °C |
| c1ccc(P(CCCCCCP(c2ccccc2)c2ccccc2)c2ccccc2)cc1 | 127 °C |
| NC(=O)c1cc(Cl)ccc1Cl | 160 °C |
| CCC(C)(S(=O)(=O)CC)S(=O)(=O)CC | 76 °C |

Memo: "Cn1cc(Cl)c(C=O)n1" , reported melting point: 82 °C

Memo: "Cc1ccc(O)c(CO)n1" , reported melting point: 157 to 159 °C

Memo: "N#Cc1cc(C(F)(F)F)ccc1N1CCOCC1" , reported melting point: 53 to 55 °C

Memo: "COCCOc1ccc(CCC(=O)O)cc1N" , reported melting point: 93.5 to 98 °C

Memo: "OCc1cccc2[nH]ccc12" , reported melting point: 67 to 68 °C

Memo: "Cc1ccc(-c2cccc(-c3ccc(C)cc3)n2)cc1" , reported melting point: 165 °C
